Data origin, for the record: the supplement of paper PMC7021759

- System: SK-N-MM (SKNMM-MYCN, doxycycline-inducible MYCN)
- assay.details: area under dose-response curve (CellTiter-Glo viability normalised to plate controls) (AUC (arbitrary units)); higher = more loss of viability; extreme values may be limits of the assay
- measurement.conditions: MYCN induction (doxycycline): +doxycycline (MYCN induced); time after drugging: 3 days

{"compound": "COc1cc2nc(N3CCCN(C)CC3)nc(NC3CCN(Cc4ccccc4)CC3)c2cc1OC", "target.desc": "SK-N-MM (SKNMM-MYCN, doxycycline-inducible MYCN)", "area under dose-response curve": 195}
{"compound": "COc1cc2ncnc(Nc3ccc(F)c(Cl)c3)c2cc1OCCCN1CCOCC1 [GEFITINIB]", "target.desc": "SK-N-MM (SKNMM-MYCN, doxycycline-inducible MYCN)", "area under dose-response curve": 80.1}
{"compound": "CNC(=O)c1cc(Oc2ccc(NC(=O)Nc3ccc(Cl)c(C(F)(F)F)c3)c(F)c2)ccn1 [REGORAFENIB]", "target.desc": "SK-N-MM (SKNMM-MYCN, doxycycline-inducible MYCN)", "area under dose-response curve": 30.6}
{"compound": "OCCN1CCN(CCCN2c3ccccc3Sc3ccc(C(F)(F)F)cc32)CC1 [FLUFENAZINE]", "target.desc": "SK-N-MM (SKNMM-MYCN, doxycycline-inducible MYCN)", "area under dose-response curve": 0}
{"compound": "O=C(CCCCCCC(=O)Nc1ccccc1)NO [VORINOSTAT]", "target.desc": "SK-N-MM (SKNMM-MYCN, doxycycline-inducible MYCN)", "area under dose-response curve": 78.4}
